The reported numbers originate from paper PMC10397247.

# measurement-target: T1, 4H347-AA
# T1 chain: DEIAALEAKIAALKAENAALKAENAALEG
# protocol-text: two-hybrid library CCmax;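 also: natural log of median RNA to DNA barcode read ratio; higher means stronger binding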
# assay-setup: mean of both orientations
assay-endpoint: interaction score
// no unit string in output, number only

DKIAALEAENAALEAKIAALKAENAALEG [4H2219-AA]
-1.36
DKNAALEAEIAALEAEIAALEAEIAALEG [4H3073-AA]
-1.33
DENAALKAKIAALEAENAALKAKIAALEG [4H1821-AA]
-1.26
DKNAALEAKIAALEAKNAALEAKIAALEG [4H3381-AA]
-1.55
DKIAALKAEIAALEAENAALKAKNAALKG [4H2592-AA]
1.59

Kindly consider the entry below.
Give me measured interaction score, please, for this binder: DKNAALEAKIAALEAEIAALKAENAALKG [4H3340-AA]
-0.858
